studySystem: T1, EsCas13d, nuclease-dead (Eubacterium siraeum, UniProt B0MS50, R295A;H300A;R849A;H854A)
T1 sequence: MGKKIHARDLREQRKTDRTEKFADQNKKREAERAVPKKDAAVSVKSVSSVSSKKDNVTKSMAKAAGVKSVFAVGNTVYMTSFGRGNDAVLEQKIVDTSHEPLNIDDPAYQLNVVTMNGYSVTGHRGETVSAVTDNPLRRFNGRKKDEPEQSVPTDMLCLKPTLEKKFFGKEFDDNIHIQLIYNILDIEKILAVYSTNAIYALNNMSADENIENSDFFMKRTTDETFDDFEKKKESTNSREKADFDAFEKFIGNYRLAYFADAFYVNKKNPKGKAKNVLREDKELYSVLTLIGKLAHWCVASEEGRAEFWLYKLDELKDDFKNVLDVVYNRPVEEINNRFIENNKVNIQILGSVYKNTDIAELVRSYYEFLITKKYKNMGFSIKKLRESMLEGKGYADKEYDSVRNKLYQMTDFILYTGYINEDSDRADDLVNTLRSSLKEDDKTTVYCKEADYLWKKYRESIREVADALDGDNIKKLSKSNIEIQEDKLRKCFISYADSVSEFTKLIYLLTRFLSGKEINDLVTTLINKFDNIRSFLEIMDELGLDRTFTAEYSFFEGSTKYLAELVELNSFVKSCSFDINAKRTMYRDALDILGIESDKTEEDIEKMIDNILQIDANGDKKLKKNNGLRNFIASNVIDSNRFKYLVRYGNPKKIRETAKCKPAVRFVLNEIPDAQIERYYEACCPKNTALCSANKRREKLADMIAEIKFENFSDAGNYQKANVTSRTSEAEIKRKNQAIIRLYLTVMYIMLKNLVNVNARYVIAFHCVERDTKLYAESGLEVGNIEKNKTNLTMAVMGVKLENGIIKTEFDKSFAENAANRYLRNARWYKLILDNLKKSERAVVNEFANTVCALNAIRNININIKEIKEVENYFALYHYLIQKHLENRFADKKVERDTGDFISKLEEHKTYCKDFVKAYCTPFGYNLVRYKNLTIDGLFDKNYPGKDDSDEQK
testDescription: crRNA (strand 1, pre-loaded); Mg2+; 40 mM Tris-HCl pH 7.5, 150 mM NaCl, 6 mM MgCl2, 1 mM DTT, 0.1% Tween-20, 0.2 mg/ml BSA; 25 C; 10 min per concentration, then washed
testParameters: tags: His6-TwinStrep-SUMO cleaved; N-terminal SNAP kept (SNAP-Surface 488); label: 3' end held by stalled T7 RNA polymerase
experimentalReadout: Kd (nM)
Give bare numbers, in nM.

binder: target 1 G12A,C22U (mixed) RNA 1: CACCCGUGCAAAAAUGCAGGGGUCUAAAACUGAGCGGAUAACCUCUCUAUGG RNA 2: GGGAAUGGAUCCACAUCUACGAAUUCGUAUCAUAGAGAGAUUAUCCGCUCACCGAGAUCGGAAGAGCACACGU
measurementUnit: nM
valueMeasured: 13

binder: target 1 insA 3' of 11,insA 3' of 4 (mixed) RNA 1: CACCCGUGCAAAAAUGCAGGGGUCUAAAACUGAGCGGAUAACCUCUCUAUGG RNA 2: GGGAAUGGAUCCACAUCUACGAAUUCGUACCAUAGAGAGGUAUAUCCGCAUCACCGAGAUCGGAAGAGCACACGU
measurementUnit: nM
valueMeasured: 9.6

Consider the record given below.
Incoming: What does the data say about its Kd? Entry: target 3 insA 3' of 10,insA 3' of 2 (mixed) RNA 1: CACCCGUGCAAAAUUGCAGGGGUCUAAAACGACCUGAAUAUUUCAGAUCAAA RNA 2: GGGAAUGGAUCCACAUCUACGAAUUCGUUUUUGAUCUGAAAUAAUUCAGGUACUGCAGAUCGGAAGAGCACACGU
Outgoing: 56
